Organism: Homo sapiens
Assay: Inhibition of HDAC in human PC3 cells assessed as increase in alpha-tubulin acetylation by Western blot analysis
Type: cell-based

Smiles Structure: COc1ccc2c(C(=O)c3cc(OC)c(OC)c(OC)c3)cn(Cc3ccc(/C=C/C(=O)NO)cc3)c2c1
alpha-tubulin acetylation increase: Dose-dependent effect
//
Smiles Structure: COc1cc(C(=O)c2cn(Cc3ccc(/C=C/C(=O)NO)cc3)c3ccccc23)cc(OC)c1OC
alpha-tubulin acetylation increase: Dose-dependent effect
//
Smiles Structure: COc1ccc(C(=O)c2cn(Cc3ccc(C(=O)NO)cc3)c3cc(OC)ccc23)cc1
alpha-tubulin acetylation increase: Dose-dependent effect
//
Smiles Structure: COc1ccc2c(C(=O)c3cc(OC)c(OC)c(OC)c3)cn(Cc3ccc(C(=O)NO)cc3)c2c1
alpha-tubulin acetylation increase: Dose-dependent effect

Reference source: ChEMBL document CHEMBL4041521
